Test system: Panc-1 cells
protocol: Colony formation assay, Panc-1
Assay type: cell-based
testSettings: Homo sapiens; Panc-1, colony formation; read-out: Carbidopa concentration for 50% inhibition of growth
From the text: Colony formation assay was used to assess the effect.
measureName: IC50

Q: Quick one: IC50 of C[C@@](Cc1ccc(O)c(O)c1)(NN)C(=O)O [Carbidopa] ?
Result: < 50 µM

* * *

System: MB-231 cells
protocol: Colony formation assay, ER-negative breast cancer cells
Format: cell-based, human
testSettings: Homo sapiens; MB-231, colony formation; read-out: Carbidopa concentration for 50% inhibition of growth
pIC50: −log10 of the molar value.
measureName: pIC50

Q: Quick one: pIC50 of C[C@@](Cc1ccc(O)c(O)c1)(NN)C(=O)O [Carbidopa] ?
Result: > 4.82
